As shown below, each of these binders has a reported Geo mean (%) at 3.125 nM value.
- target: T1, human CD200R1 expressed on cells (Jurkat-CD200R1, U937-CD200R1, HH cells) (human, UniProt Q8TD46 25-348)
- T1 construct: whole, on cells; also called HH (CRL-2105); cell surface-expressed CD200R1
- T1 sequence (looked up): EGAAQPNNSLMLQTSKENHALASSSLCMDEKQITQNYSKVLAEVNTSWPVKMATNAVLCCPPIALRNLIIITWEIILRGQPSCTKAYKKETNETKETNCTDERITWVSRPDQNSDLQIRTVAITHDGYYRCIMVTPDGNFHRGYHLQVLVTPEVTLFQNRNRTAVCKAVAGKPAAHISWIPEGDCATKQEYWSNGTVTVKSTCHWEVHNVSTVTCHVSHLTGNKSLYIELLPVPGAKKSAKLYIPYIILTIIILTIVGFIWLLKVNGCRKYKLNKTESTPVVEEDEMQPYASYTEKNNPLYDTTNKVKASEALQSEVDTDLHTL
- assayRemarks: flow cytometry, HH cells; drawn table
measuredProperty: Geo mean (%) at 3.125 nM

binder	measuredNumber
P001018 scFv mutant L3-L94S (scFv) scFv: QVQLVQSGAEVKKPGASVKVSCKASGYTFTSYVMHWVRQAPGQGLEWMGYINPYNDDTNYNEKFKGRVTMTRDTSTSTVYMELSSLRSEDTAVYYCAREDYYGSRWGYWGQGTLVTVSSGGGGSGGGGSGGGGSDIVLTQSPASLAVSPGQRATITCRASKSVSTSGYSYMHWYQQKPGQPPKLLIYLASNLESGVPARFSGSGSGTDFTLTINPVEANDTANYYCQHSRESLTFGQGTKVEIK	35.5
P001018 scFv mutant L3-R92S (scFv) scFv: QVQLVQSGAEVKKPGASVKVSCKASGYTFTSYVMHWVRQAPGQGLEWMGYINPYNDDTNYNEKFKGRVTMTRDTSTSTVYMELSSLRSEDTAVYYCAREDYYGSRWGYWGQGTLVTVSSGGGGSGGGGSGGGGSDIVLTQSPASLAVSPGQRATITCRASKSVSTSGYSYMHWYQQKPGQPPKLLIYLASNLESGVPARFSGSGSGTDFTLTINPVEANDTANYYCQHSSELLTFGQGTKVEIK	33.9
P001018 (huOX108.1) (antibody, V domains shown, also called humanized antibody P001018) VH: QVQLVQSGAEVKKPGASVKVSCKASGYTFTSYVMHWVRQAPGQGLEWMGYINPYNDDTNYNEKFKGRVTMTRDTSTSTVYMELSSLRSEDTAVYYCAREDYYGSRWGYWGQGTLVTVSS VL: DIVLTQSPASLAVSPGQRATITCRASKSVSTSGYSYMHWYQQKPGQPPKLLIYLASNLESGVPARFSGSGSGTDFTLTINPVEANDTANYYCQHSRELLTFGQGTKVEIK	35.2
P001018 scFv mutant L3-T96R (scFv) scFv: QVQLVQSGAEVKKPGASVKVSCKASGYTFTSYVMHWVRQAPGQGLEWMGYINPYNDDTNYNEKFKGRVTMTRDTSTSTVYMELSSLRSEDTAVYYCAREDYYGSRWGYWGQGTLVTVSSGGGGSGGGGSGGGGSDIVLTQSPASLAVSPGQRATITCRASKSVSTSGYSYMHWYQQKPGQPPKLLIYLASNLESGVPARFSGSGSGTDFTLTINPVEANDTANYYCQHSRELLRFGQGTKVEIK	40.2
P001018 scFv mutant H3-Y102K (scFv) scFv: QVQLVQSGAEVKKPGASVKVSCKASGYTFTSYVMHWVRQAPGQGLEWMGYINPYNDDTNYNEKFKGRVTMTRDTSTSTVYMELSSLRSEDTAVYYCAREDYYGSRWGKWGQGTLVTVSSGGGGSGGGGSGGGGSDIVLTQSPASLAVSPGQRATITCRASKSVSTSGYSYMHWYQQKPGQPPKLLIYLASNLESGVPARFSGSGSGTDFTLTINPVEANDTANYYCQHSRELLTFGQGTKVEIK	35.3
P001018 scFv mutant L3-R92H (scFv) scFv: QVQLVQSGAEVKKPGASVKVSCKASGYTFTSYVMHWVRQAPGQGLEWMGYINPYNDDTNYNEKFKGRVTMTRDTSTSTVYMELSSLRSEDTAVYYCAREDYYGSRWGYWGQGTLVTVSSGGGGSGGGGSGGGGSDIVLTQSPASLAVSPGQRATITCRASKSVSTSGYSYMHWYQQKPGQPPKLLIYLASNLESGVPARFSGSGSGTDFTLTINPVEANDTANYYCQHSHELLTFGQGTKVEIK	43.8
P001018 scFv mutant L3-L95D (scFv) scFv: QVQLVQSGAEVKKPGASVKVSCKASGYTFTSYVMHWVRQAPGQGLEWMGYINPYNDDTNYNEKFKGRVTMTRDTSTSTVYMELSSLRSEDTAVYYCAREDYYGSRWGYWGQGTLVTVSSGGGGSGGGGSGGGGSDIVLTQSPASLAVSPGQRATITCRASKSVSTSGYSYMHWYQQKPGQPPKLLIYLASNLESGVPARFSGSGSGTDFTLTINPVEANDTANYYCQHSRELDTFGQGTKVEIK	35.6
P001018 scFv mutant L3-L94H (scFv) scFv: QVQLVQSGAEVKKPGASVKVSCKASGYTFTSYVMHWVRQAPGQGLEWMGYINPYNDDTNYNEKFKGRVTMTRDTSTSTVYMELSSLRSEDTAVYYCAREDYYGSRWGYWGQGTLVTVSSGGGGSGGGGSGGGGSDIVLTQSPASLAVSPGQRATITCRASKSVSTSGYSYMHWYQQKPGQPPKLLIYLASNLESGVPARFSGSGSGTDFTLTINPVEANDTANYYCQHSREHLTFGQGTKVEIK	35.3
P001018 scFv mutant H3-Y102T (scFv) scFv: QVQLVQSGAEVKKPGASVKVSCKASGYTFTSYVMHWVRQAPGQGLEWMGYINPYNDDTNYNEKFKGRVTMTRDTSTSTVYMELSSLRSEDTAVYYCAREDYYGSRWGTWGQGTLVTVSSGGGGSGGGGSGGGGSDIVLTQSPASLAVSPGQRATITCRASKSVSTSGYSYMHWYQQKPGQPPKLLIYLASNLESGVPARFSGSGSGTDFTLTINPVEANDTANYYCQHSRELLTFGQGTKVEIK	33.2
